// (F) hLRRC33, Cell-associated proTGFb1 (KD) lookup, one value per entry
Target: T1, recombinant human LRRC33-proTGFβ1 complex (Homo sapiens, UniProt P01137)
T1 construct: made in house
T1 sequence (P01137 30-390): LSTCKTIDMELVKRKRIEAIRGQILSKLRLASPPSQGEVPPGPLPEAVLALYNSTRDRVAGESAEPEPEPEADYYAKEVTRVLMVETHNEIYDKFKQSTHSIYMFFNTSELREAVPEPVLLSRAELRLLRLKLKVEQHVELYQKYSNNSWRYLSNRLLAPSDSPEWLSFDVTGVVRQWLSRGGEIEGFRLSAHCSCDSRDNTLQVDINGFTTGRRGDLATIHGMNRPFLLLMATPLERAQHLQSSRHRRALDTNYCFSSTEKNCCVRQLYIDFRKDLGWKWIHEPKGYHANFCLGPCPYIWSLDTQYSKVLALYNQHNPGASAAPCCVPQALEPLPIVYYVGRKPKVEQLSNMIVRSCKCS
T1 sequence (Q86YC3 19-650 partner limits assumed): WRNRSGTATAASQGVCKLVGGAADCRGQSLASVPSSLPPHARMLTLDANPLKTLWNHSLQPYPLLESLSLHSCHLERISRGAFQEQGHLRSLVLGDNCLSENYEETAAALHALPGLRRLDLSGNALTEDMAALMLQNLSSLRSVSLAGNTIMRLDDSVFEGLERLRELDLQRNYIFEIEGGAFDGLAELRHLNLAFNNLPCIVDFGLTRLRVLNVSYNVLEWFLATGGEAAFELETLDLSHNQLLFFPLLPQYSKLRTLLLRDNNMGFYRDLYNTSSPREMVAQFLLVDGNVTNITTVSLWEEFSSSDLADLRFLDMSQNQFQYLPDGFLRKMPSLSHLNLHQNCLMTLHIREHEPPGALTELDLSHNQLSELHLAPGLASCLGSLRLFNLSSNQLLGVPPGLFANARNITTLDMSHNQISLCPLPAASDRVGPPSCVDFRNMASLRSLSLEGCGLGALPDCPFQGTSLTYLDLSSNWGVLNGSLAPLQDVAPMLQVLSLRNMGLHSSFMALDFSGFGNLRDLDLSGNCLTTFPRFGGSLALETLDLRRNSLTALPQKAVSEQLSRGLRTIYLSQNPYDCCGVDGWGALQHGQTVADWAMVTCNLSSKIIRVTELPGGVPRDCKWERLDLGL
Experiment: Octet (Biolayer Interferometry) in vitro kinetic binding
Conditions: in M
Procedure: Biolayer Interferometry (BLI):BLI is a label-free technology for optically measuring biomolecular interactions, e.g., between a ligand immobilized on the biosensor tip surface and an analyte in solution. […] BLI-based binding assays are widely used in the art for measuring affinities and kinetics of antibodies to antigens. It is a label-free technology in which biomolecular interactions are analyzed on the basis of optical interference. […]
OBSERVABLE: (F) hLRRC33, Cell-associated proTGFb1 (KD)

MOLECULE: Ab29: monoclonal antibody; VH SEQ ID NO: 137, VL SEQ ID NO: 15 (antibody, V domains shown) VH: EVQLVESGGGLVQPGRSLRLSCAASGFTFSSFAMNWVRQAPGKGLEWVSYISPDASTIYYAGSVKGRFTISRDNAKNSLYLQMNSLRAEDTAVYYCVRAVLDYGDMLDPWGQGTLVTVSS VL: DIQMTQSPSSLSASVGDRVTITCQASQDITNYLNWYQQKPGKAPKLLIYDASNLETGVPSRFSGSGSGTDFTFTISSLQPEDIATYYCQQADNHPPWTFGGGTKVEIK
RESULT: 3.02E−10
--
MOLECULE: Ab18: monoclonal antibody; VH SEQ ID NO: 249, VL SEQ ID NO: 241 (antibody, V domains shown) VH: QVQLVESGGGVVQPGRSLRLSCAASGFTFSDYAMVWVRQAPGKGLEWVSAISGSGAATYFADSVKGRFTISRDNSKNTLYLQMNSLRAEDTAVYYCATVSSGHWDFDYWGQGTLVTVSS VL: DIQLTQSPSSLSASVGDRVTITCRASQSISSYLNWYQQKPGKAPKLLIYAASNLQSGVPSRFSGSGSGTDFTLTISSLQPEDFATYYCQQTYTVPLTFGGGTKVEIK
RESULT: 1.02E−09
